procedure text: Displacement of [3H]PDBu from PKC in calf brain homogenate
Format: tissue-based, Bos taurus
Assignment: determine reported IC50 for the given molecules.
One number for each entry, in µM.

Examples from the recorded data:
| smiles notation | readout value |
| --- | --- |
| CCCCCCCCCCCCCCCC(=O)OCC1=C[C@@H]2C(=O)[C@]3(C=C(C)[C@H](O)[C@@]3(O)[C@@H]1O)[C@H](C)C[C@@H]1[C@H]2[C@]1(C)CO | 0.023 |
| CC1(C)C(=O)CC[C@]2(C)[C@@H]1CC[C@@]13CC[C@@H](C[C@H]12)[C@](O)(CO)C3 | 66 |

Dear reader, for each entry below, please note its IC50.
1. CC1(C)[C@H](O)CC[C@]2(C)[C@@H]1CC[C@@]13CC[C@@H](C[C@H]12)[C@](O)(CO)C3
2. CCCCCCCCCCCCCCCC(=O)OCC1=C[C@@H]2C(=O)[C@]3(C=C(C)[C@H](O)[C@@]3(O)[C@@H]1O)[C@H](C)C[C@@H]1[C@H]2C1(C)C

Marked response:
73
5.3

FYI, the data here is from ChEMBL document CHEMBL1158285.
